B1: 6NMW (parent)
chain: QGDIVVALYPYDGIHPDDLSFKKGEKMKVLEEHGEWWKAKSLLTKKEGFIPSNYVAKLN

# Variants of: B1
# Assay Remarks: folding stability dG (cDNA display proteolysis); higher = more stable
# Assay Context: PBS, room temperature
Below: a set of entries, each annotated with reported folding stability dG.
Expressed in kcal/mol, but write only the number.

Illustrative cases are given below, each with its answer.
Data point: K23N ; folding stability dG = 1.18

Lab note: measured folding stability dG of D17A was 3.37

The reported folding stability dG of the variant E25T was 0.615

Query I14V yields folding stability dG of 3.97

Notebook: E47Y , folding stability dG read as 2.25

The reported value for E25A in terms of folding stability dG is 1.21

variant D18R , folding stability dG observed: 3.15

// folding stability dG lookup, variant = K40F , result: 3.63

Others:
Sample E32T ; folding stability dG observed: 3.95

Looking up K40G , I see its folding stability dG listed as 1.1

// folding stability dG value for L43K : 3.17

# folding stability dG (variant: I4R ) is 0.874

Briefly, folding stability dG measured for D12Y : 3.86

P51K yielded folding stability dG of 1.62

Notebook: G34K , folding stability dG read as 1.84

folding stability dG measured on F21Y = -0.495

Entry K46V ; folding stability dG = 2.21

// L8H : folding stability dG value = 1.06

The variant listed as N59P has a reported folding stability dG of 3.88

Reported folding stability dG ( G24Y ) = 2.25

folding stability dG for P16F is 2.73

Sample S52I ; folding stability dG observed: 2.91
